- procedure_summary: Antioxidant activity assessed as trolox equivalent of ORAC radical scavenging activity at 0.125 to 2 uM by AAPH based automatic microplate reader analysis
- Format: functional
- experimental_setup: dose 0.125-2 µM
compounds and their reported Activity

Previously resolved entries follow.
smiles_input: Cc1ccc(C(=O)NCCc2c[nH]c3cccc(F)c23)c(O)c1
observed_measurement: 3.7
--
smiles_input: Cc1ccc(C(=O)NCCc2c[nH]c3ccc(N(C)C)cc23)c(O)c1
observed_measurement: 5.2
--
smiles_input: Cc1ccc(C(=O)NCCc2c[nH]c3ccc(C)cc23)c(O)c1
observed_measurement: 3.1
--
smiles_input: Cc1ccc(C(=O)NCCc2c[nH]c3ccc(F)cc23)c(O)c1
observed_measurement: 3.1
--
smiles_input: CC1=NN(c2ccccc2)C(=O)C1
observed_measurement: 2.8
--
smiles_input: Cc1ccc(C(=O)NCCc2c[nH]c3ccccc23)c(O)c1
observed_measurement: 4.4

Okay, now this compound:
Problem: Which value of Activity has been reported for `COc1cccc2c(CCNC(=O)c3ccc(C)cc3O)c[nH]c12` in the records?
Result: 2

----------
- procedure_summary: Drug concentration in male Sprague-Dawley rat Cerebrospinal fluid at 60 mg/kg, ip measured after 4 hrs by LC-MS analysis
- Format: ADME, organism-based
- experimental_setup: read-out: Ct
measure_name: concentration at 4 h (ng/mL)
Give your result in ng/mL as a bare value.

Problem: Which value of concentration at 4 h has been reported for `Cc1ccc(C(=O)NCCc2c[nH]c3ccc(N(C)C)cc23)c(O)c1` in the records?
Result: 20

----------
compounds and their reported IC50 at 24 h
- procedure_summary: Cytotoxicity against mouse BV-2 cells assessed as cell viability incubated for 24 hrs by CCK-8 method
- Type: toxicity, cell-based
Give your result in µM as a bare value.

smiles_input: CNc1ccc2[nH]cc(CCNC(=O)c3ccc(C)cc3O)c2c1
IC50 at 24 h / µM: 95.4
//
smiles_input: CNc1cccc2c(CCNC(=O)c3ccc(C)cc3O)c[nH]c12
IC50 at 24 h / µM: 28.9
//
smiles_input: O=C(NCCc1c[nH]c2ccccc12)c1cccc(Cl)c1O
IC50 at 24 h / µM: 50.4

Problem: Which value of IC50 at 24 h has been reported for `Cc1cccc(C(=O)NCCc2c[nH]c3ccccc23)c1O` in the records?
Result: 36.1

Problem: How about this compound: `O=C(NCCc1c[nH]c2ccccc12)c1cc(Br)ccc1O`
Result: 68.2

Problem: How about this compound: `Cc1ccc(C(=O)NCCc2c[nH]c3cccc(F)c23)c(O)c1`
Result: 81.7

Problem: How about this compound: `COc1cccc2c(CCNC(=O)c3ccc(C)cc3O)c[nH]c12`
Result: 90.9

Problem: How about this compound: `Cc1ccc(C(=O)NCCc2c[nH]c3cc(Cl)ccc23)c(O)c1`
Result: 52.5

----------
compounds and their reported Papp
- procedure_summary: Permeability of the compound by PAMPA method
- Assay type: ADME
- experimental_setup: read-out: permeability
Give your result in ×10⁻⁶ cm/s as a bare value.

smiles_input: Cc1ccc(C(=O)NCCc2c[nH]c3ccc(N(C)C)cc23)c(O)c1
Papp [×10⁻⁶ cm/s]: 8.29

Okay, now this compound:
Problem: Which value of Papp has been reported for `CN1CCN(C2=Nc3cc(Cl)ccc3Nc3ccccc32)CC1` in the records?
Result: 8.34
